Assay: Pharmacokinetic evaluation by intravenous injection or oral gavage in mice
Conditions: mouse, plasma, po, 5 mg/kg/day
reported.endpoint: Cmax

Ask: Dear colleague, I am looking for the recorded Cmax of the following compound: C#Cc1c(F)ccc2cc(O)cc(-c3nc(C#CC)c4c(N5CCCCC(F)C5)nc(OC[C@@]56CCCN5C[C@H](F)C6)nc4c3F)c12 (stereo partly shown)
Reply: 2660 ng/mL

----------
Test: in vivo
Details: mouse, iv, 2 mg/kg/day
reported.endpoint: Vd

Ask: Dear colleague, I am looking for the recorded Vd of the following compound: C#Cc1c(F)ccc2cc(O)cc(-c3nc(C#CCC)c4c(N5CCCCC(F)C5)nc(OC[C@@]56CCCN5C[C@H](F)C6)nc4c3F)c12 (stereo partly shown)
Reply: 0.3 L/kg

----------
Assay: in vivo
Settings: mouse, iv, 2 mg/kg/day
reported.endpoint: AUC(0-inf)

Ask: Dear colleague, I am looking for the recorded AUC(0-inf) of the following molecule: C#Cc1c(F)ccc2cc(O)cc(-c3nc(C#CCC)c4c(N5CCCCC(F)C5)nc(OC[C@@]56CCCN5C[C@H](F)C6)nc4c3F)c12 (stereo partly shown) [Compound 26]
Reply: 8110 ng·h/mL

----------
Experiment: in vivo
Conditions: mouse, iv, 2 mg/kg/day
reported.endpoint: Cmax (ng/mL)
Give the quantity in ng/mL, number only.

Ask: Dear colleague, I am looking for the recorded Cmax of the following molecule: C#Cc1c(F)ccc2cc(O)cc(-c3nc(C#CCC)c4c(N5CCCCC(F)C5)nc(OC[C@@]56CCCN5C[C@H](F)C6)nc4c3F)c12 (stereo partly shown) [Compound 26]
Reply: 8280

----------
Experiment: in vivo
Settings: mouse, iv, 2 mg/kg/day
reported.endpoint: AUC(0-t) (ng·h/mL)
Give the quantity in ng·h/mL, number only.

Ask: Dear colleague, I am looking for the recorded AUC(0-t) of the following compound: C#Cc1c(F)ccc2cc(O)cc(-c3nc(C#CCC)c4c(N5CCCCC(F)C5)nc(OC[C@@]56CCCN5C[C@H](F)C6)nc4c3F)c12 (stereo partly shown) [Compound 26]
Reply: 8050

----------
Test: in vivo
Details: mouse, po, 5 mg/kg/day
reported.endpoint: Cmax (ng/mL)
Give the quantity in ng/mL, number only.

Ask: Dear colleague, I am looking for the recorded Cmax of the following compound: C#Cc1c(F)ccc2cc(O)cc(-c3nc(C#CCC)c4c(N5CCCCC(F)C5)nc(OC[C@@]56CCCN5C[C@H](F)C6)nc4c3F)c12 (stereo partly shown)
Reply: 1630

----------
Test: in vivo
Conditions: mouse, po, 5 mg/kg/day
reported.endpoint: half-life (h)
Give the quantity in h, number only.

Ask: Dear colleague, I am looking for the recorded half-life of the following molecule: C#Cc1c(F)ccc2cc(O)cc(-c3nc(C#CCC)c4c(N5CCCCC(F)C5)nc(OC[C@@]56CCCN5C[C@H](F)C6)nc4c3F)c12 (stereo partly shown) [Compound 26]
Reply: 1.3

----------
Test system: pERK in NCI-H727 cells (KRAS p.G12V)
Assay: Inhibitory effect on intracellular pERK by In-Cell Western assay, NCI-H727
Assay type: cell-based
Conditions: Homo sapiens, pERK inhibition, compound incubation 3 h
reported.endpoint: IC50
Note: a bare number is incomplete; add the unit.

INSERT INTO assay_data (molecule, assay_system, measured_result) VALUES
  ('C#Cc1c(F)ccc2cc(O)cc(-c3nc(C#CC)c4c(N5CCCOCC5)nc(OCC56CCCN5CC(F)C6)nc4c3F)c12 (stereo not drawn) [Compound 1]', 'pERK in NCI-H727 cells (KRAS p.G12V)', '1 nM'),
  ('CC#Cc1nc(-c2cc(O)cc3ccc(F)c(CC)c23)c(F)c2nc(OCC34CCCN3CC(F)C4)nc(N3CCCOCC3)c12 (stereo not drawn) [Compound 2]', 'pERK in NCI-H727 cells (KRAS p.G12V)', '4.8 nM');

Next molecule, IC50 to be filled in.
Ask: Dear colleague, I am looking for the recorded IC50 of the following molecule: C#Cc1c(F)ccc2cc(O)cc(-c3nc(C#CCC)c4c(N5CCCOCC5)nc(OCC56CCCN5CC(F)C6)nc4c3F)c12 (stereo not drawn) [Compound 3]
Reply: 2.2 nM

----------
Assay: in vivo
Details: mouse, iv, 2 mg/kg/day
reported.endpoint: clearance (mL/min/kg)
Give the quantity in mL/min/kg, number only.

Ask: Dear colleague, I am looking for the recorded clearance of the following compound: C#Cc1c(F)ccc2cc(O)cc(-c3nc(C#CCC)c4c(N5CCCCC(F)C5)nc(OC[C@@]56CCCN5C[C@H](F)C6)nc4c3F)c12 (stereo partly shown)
Reply: 4.1

----------
Assay: Pharmacokinetic evaluation by intravenous injection or oral gavage in mice
Settings: mouse, plasma, po, 5 mg/kg/day
reported.endpoint: AUC(0-inf) (ng·h/mL)
Give the quantity in ng·h/mL, number only.

Ask: Dear colleague, I am looking for the recorded AUC(0-inf) of the following compound: C#Cc1c(F)ccc2cc(O)cc(-c3nc(C#CC)c4c(N5CCCCC(F)C5)nc(OC[C@@]56CCCN5C[C@H](F)C6)nc4c3F)c12 (stereo partly shown) [Compound 25]
Reply: 6140

----------
Assay: Pharmacokinetic evaluation by intravenous injection or oral gavage in mice
Conditions: mouse, plasma, po, 5 mg/kg/day
reported.endpoint: MRT last
Note: a bare number is incomplete; add the unit.

Ask: Dear colleague, I am looking for the recorded MRT last of the following compound: C#Cc1c(F)ccc2cc(O)cc(-c3nc(C#CC)c4c(N5CCCCC(F)C5)nc(OC[C@@]56CCCN5C[C@H](F)C6)nc4c3F)c12 (stereo partly shown)
Reply: 1.7 h

----------
Each entry below lists one item and its recorded IC50 value.
Tested on: pERK in HCT 116 cells (KRAS p.G13D)
Assay: Inhibitory effect on intracellular pERK by In-Cell Western assay, HCT 116
Type: cell-based
Details: Homo sapiens, pERK inhibition, compound incubation 3 h
Give the quantity in nM, number only.

INSERT INTO results (compound, measured_result) VALUES
  ('C#Cc1c(F)ccc2cc(O)cc(-c3nc(C#CC)c4c(N5CCCCC(F)(F)C5)nc(OC[C@@]56CCCN5C[C@H](F)C6)nc4c3F)c12', 19.5),
  ('C#Cc1c(F)ccc2cc(O)cc(-c3nc(C#C)c4c(N5CCCOCC5)nc(OC[C@@]56CCCN5C[C@H](F)C6)nc4c3F)c12', 11.6);

Ask: What measured IC50 is associated with `C#Cc1c(F)ccc2cc(O)cc(-c3nc(C#CC)c4c(N5CCCCCC5)nc(OC[C@@]56CCCN5C[C@H](F)C6)nc4c3F)c12` on pERK in HCT 116 cells (KRAS p.G13D)?
Reply: 15.2

Ask: Please do the same for `C#Cc1c(F)ccc2cc(O)cc(-c3nc(C#C)c4c(N5CCCOCC5)nc(OCC56CC(=C)CN5CC(=C)C6)nc4c3F)c12` as well.
Reply: 6.2

Ask: Please do the same for `C#Cc1c(F)ccc2cc(O)cc(-c3nc(C#CC)c4c(N5CCOCC(F)(F)C5)nc(OC[C@@]56CCCN5C[C@H](F)C6)nc4c3F)c12` as well.
Reply: 5.4

Ask: Please do the same for C#Cc1c(F)ccc2cc(O)cc(-c3nc(C#CCC)c4c(N5CCCCC(F)C5)nc(OC[C@@]56CCCN5C[C@H](F)C6)nc4c3F)c12 (stereo partly drawn) as well.
Reply: 47.3

Ask: Please do the same for C#Cc1c(F)ccc2cc(O)cc(-c3nc(C#CC)c4c(N5CCCCC(F)C5)nc(OC[C@@]56CCCN5C[C@H](F)C6)nc4c3F)c12 (stereo partly drawn) as well.
Reply: 7.9

Ask: Please do the same for `C#Cc1c(F)ccc2cc(O)cc(-c3nc(C#CC)c4c(N5CCCOCC5)nc(OCC56CCCN5CCC6)nc4c3F)c12` as well.
Reply: 28.6

Ask: Please do the same for C#Cc1c(F)ccc2cc(O)cc(-c3nc(C#CC)c4c(N5CCCOCC5)nc(OCC56CCCN5CC(F)C6)nc4c3F)c12 (stereo not drawn) as well.
Reply: 2.1

----------
Assay: Pharmacokinetic evaluation by intravenous injection or oral gavage in mice
Settings: mouse, plasma, iv, 2 mg/kg/day
reported.endpoint: clearance (mL/min/kg)
Give the quantity in mL/min/kg, number only.

Ask: Dear colleague, I am looking for the recorded clearance of the following compound: C#Cc1c(F)ccc2cc(O)cc(-c3nc(C#CC)c4c(N5CCCCC(F)C5)nc(OC[C@@]56CCCN5C[C@H](F)C6)nc4c3F)c12 (stereo partly shown)
Reply: 3.2

----------
Experiment: Pharmacokinetic evaluation by intravenous injection or oral gavage in mice
Conditions: mouse, plasma, iv, 2 mg/kg/day
reported.endpoint: AUC(0-t) (ng·h/mL)
Give the quantity in ng·h/mL, number only.

Ask: Dear colleague, I am looking for the recorded AUC(0-t) of the following compound: C#Cc1c(F)ccc2cc(O)cc(-c3nc(C#CC)c4c(N5CCCCC(F)C5)nc(OC[C@@]56CCCN5C[C@H](F)C6)nc4c3F)c12 (stereo partly shown)
Reply: 10600
